Assay: Permeability coefficient through artificial membrane in presence of stirred water layer
Settings: PAMPA
Consider the reported LogP app of an entry and match it to a band in label 0: < -6; label 1: ≥ -6 and < -5; label 2: ≥ -5

Example entries and their recorded answers appear below.
CNC(=C[N+](=O)[O-])NCCSCc1ccc(CN(C)C)o1 [RANITIDINE]
label 1
Oc1ccccc1 [PHENOL]
label 2
Oc1ccc(O)cc1 [HYDROQUINONE]
label 1

q: Dear colleague, I would appreciate it if you could identify the bin for c1ccc(-c2ccccc2)cc1 [BIPHENYL] and reply at your convenience.
a: label 2

q: Please let me know in which category the item O=C(O)c1ccccc1O [SALICYLIC ACID] belongs.
a: label 1

q: Given CCn1cc(C(=O)O)c(=O)c2cc(F)c(N3CCNCC3)cc21 [NORFLOXACIN] , name the class its LogP app places it in.
a: label 0
